# system-name: RPS6KA4 KD1 (human)
# protocol-summary: split-luciferase competition binding
# condition-description: compound 10.0 µM
readout-name: inhibition (%)
Give bare numbers, in %.

compound	inhibition / %
c1ccc(-c2n[nH]cc2-c2ccnc3ccccc23)nc1	0
Cc1ccccc1C(=O)c1ccc(Nc2ccc(Br)cc2N)cc1Cl	0
COc1nccc(-c2c(-c3ccc(F)cc3)ncn2[C@H]2CC[C@H](O)CC2)n1	0

# map each compound to its inhibition
1. CS(=O)(=O)CCNCc1nc(-c2ccc3ncnc(Nc4ccc(OCc5cccc(F)c5)c(Cl)c4)c3c2)cs1
2. NC(=O)c1ccc(-c2nc(-c3ccccn3)c(-c3ccc4c(c3)OCCO4)[nH]2)cc1

6
0
